The measured values listed here are drawn from PubChem BioAssay (NCI).

Below is a list of entries, each paired with its recorded TGI value.
- Tested on: MALME-3M melanoma
- protocol summary: NCI tumour cell line growth inhibition, 48 h

Please review the entries below; each comes with its answer.
>  <compound>
C[C@@H](NC(=O)c1ccc(F)cc1)c1ccc2c(c1)CCN2C(=O)C1CCOCC1

>  <TGI>
> 100 µM

$$$$
>  <compound>
O=c1ccn(/C=C/C(O)C(O)CO)c(=O)[nH]1 (configuration not stated)

>  <TGI>
> 100 µM

$$$$
>  <compound>
COc1cc(/C=C/C2=C(C#N)C(=O)OC2(C)C)ccc1O

>  <TGI>
> 100 µM

$$$$

Quick one: TGI for COc1ccccc1C1c2cc3c(cc2OC(N2CCCC2)C1C)OCO3 (configuration not stated) ?
43.2 µM

# iterate: `COC1=C(OC)C(=O)C(CCCCCCCCCCO)=C(C)C1=O`
21.8 µM

# iterate: `Cc1nc(N(C(C)C)C(C)C)c(C(C)C)o1`
> 100 µM

# iterate: `[Cl][Cu][Cl]`
> 10 µM
